// each record: one item and its IC50 for NAMPT (Homo sapiens)
OUTCOME_MEASURE: IC50 (nM)

CPD_SMILES: CCCC(=O)N1CCC(c2ccc(C(=O)NCc3ccn4ccnc4c3)cc2)CC1
VALUE_UNITS: nM
DATA_VALUE: 0.355
--
CPD_SMILES: O=C(NCc1ccn2ccnc2c1)c1ccc(-c2cnn(CC3CCC3)c2)s1
VALUE_UNITS: nM
DATA_VALUE: 0.169

[A] O=C(NCc1ccn2ccnc2c1)c1ccc(O[C@@H]2CCN(C(=O)c3ccccc3)C2)cc1
[B] COCCC(=O)N(CC1CCOCC1)c1ncc(C(=O)NCc2ccc3nccn3c2)s1
Problem: Of A and B , which one carries the higher reported IC50? # respond with the chosen item's label
Solution: B
(B: 3.05 nM, A: 0.455 nM)

* * *

molecular target: NAMPT (human, recombinant, C-terminally His-tagged) (Homo sapiens, UniProt P43490); experiment: Time-Resolved Fluorescence Resonance Energy Transfer (TR-FRET) Binding Assay of NAMPT; details: without substrates; 6.8 nM NAMPT, 200 nM probe, 3 hours equilibration
Sequence (P43490 whole entry): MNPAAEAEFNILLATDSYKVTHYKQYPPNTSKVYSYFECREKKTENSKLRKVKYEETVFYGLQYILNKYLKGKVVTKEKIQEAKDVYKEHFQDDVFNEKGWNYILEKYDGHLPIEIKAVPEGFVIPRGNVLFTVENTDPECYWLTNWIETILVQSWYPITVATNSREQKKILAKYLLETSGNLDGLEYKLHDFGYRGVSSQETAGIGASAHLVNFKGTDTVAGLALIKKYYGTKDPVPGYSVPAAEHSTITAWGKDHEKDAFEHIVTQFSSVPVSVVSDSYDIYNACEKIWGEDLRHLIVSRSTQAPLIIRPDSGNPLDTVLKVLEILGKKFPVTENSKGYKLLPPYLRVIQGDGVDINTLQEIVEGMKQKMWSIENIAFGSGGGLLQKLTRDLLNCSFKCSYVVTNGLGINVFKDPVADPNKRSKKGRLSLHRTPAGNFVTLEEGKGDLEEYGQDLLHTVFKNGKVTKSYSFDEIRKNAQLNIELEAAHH
OUTCOME_MEASURE: IC50 (nM)

Field: example entries. Status: answers known.
COMPOUND: O=C(NCc1ccn2ccnc2c1)Nc1ccc(C2CCN(C(=O)CC3CC3)CC2)cc1
IC50 / nM: 91.1

COMPOUND: O=C(NCc1ccn2ccnc2c1)c1ccc(C2CCN(C(=O)c3ccc(F)cc3)C2)s1 (centres unmarked)
IC50 / nM: 48.5

COMPOUND: CC(C)CC(=O)N1CCC(c2ncc(C(=O)NCc3ccn4ccnc4c3)s2)C1 (centres unmarked)
IC50 / nM: 2740

COMPOUND: O=C(NCc1ccn2ccnc2c1)c1ccc(C2=CCN(C(=O)c3ccccc3)CC2)o1
IC50 / nM: 795

[A] O=C(NCc1ccn2ccnc2c1)c1ccc(C2CN(C(=O)C3CCCC3)C2)cc1
[B] O=C(NCc1ccn2ccnc2c1)Nc1ccc(C2CCN(C(=O)[C@@H]3CCOC3)CC2)cc1
[C] O=C(NCc1ccn2ccnc2c1)Nc1ccc(C2CCN(C(=O)C3COCCO3)C2)cc1 (centres unmarked)
[D] CC(C)OCC(=O)N1CC(c2ccc(NC(=O)NCc3ccn4ccnc4c3)cc2)C1
[E] O=C(NCc1ccn2ccnc2c1)c1ccc(C2CCN(C(=O)C3CC3)CC2)s1
Problem: Ordering criterion: IC50; begin with the maximum. Returns: the labels arranged in the requested order.
Solution: A, D, C, B, E

* * *

target: NAMPT (human, recombinant, C-terminally His-tagged) (Homo sapiens, UniProt P43490); test: Time-Resolved Fluorescence Resonance Energy Transfer (TR-FRET) Binding Assay of NAMPT; conditions: without substrates; 6.8 nM NAMPT, 200 nM probe, 3 hours equilibration
pIC50: −log10 of the molar value.
OUTCOME_MEASURE: pIC50

[a] CC(C)C(=O)N1CC[C@@H](Oc2ccc(NC(=O)NCc3ccn4ccnc4c3)cc2)C1
[b] O=C(NCc1ccc2nccn2c1)c1ccc(C2=CCN(C(=O)C3CCOC3)CC2)cc1 (centres unmarked)
[c] COCC(C)C(=O)N1CC[C@H](Oc2ccc(C(=O)NCc3ccn4ccnc4c3)cc2)C1 (some centres unmarked)
Problem: Order by pIC50, ascending. Returns: the labels arranged in the requested order.
Solution: c, a, b
(c: 5.39, a: 6.49, b: 6.99)
